- Tested on: HL-1
- Experimental Details: relative cell viability (CellTiter-Glo) vs DMSO control (% of DMSO control); higher = more viable cells
- Run Conditions: oxygen condition: hypoxia 48 h (1% O2) + reoxygenation 24 h; 40 nM
Counter-ions that a name gives are not always drawn.
Quantity: relative cell viability
No unit in the answer, only the number.

> print(dat)
                                   compound  val
1         Cn1c(=O)c2c(ncn2CC2OCCO2)n(C)c1=O  101
2                CNC[C@@H](O)c1ccc(O)c(O)c1  102
3  C#Cc1cccc(Nc2ncnc3cc(OCCOC)c(OCCOC)cc23)c1 [Erlotinib HCl]  114
4  CN1CCC(=C2c3ccccc3CC(=O)c3sccc32)CC1 [Ketotifen fumarate]  108

Fill in reported relative cell viability for this entry: `O=C(c1ccc(OCCN2CCCCC2)cc1)c1c(-c2ccc(O)cc2)sc2cc(O)ccc12` 111

---

- System: HL-1
- Experimental Details: relative cell viability (CellTiter-Glo) vs DMSO control (% of DMSO control); higher = more viable cells
- Run Conditions: oxygen condition: hypoxia 48 h (1% O2) + reoxygenation 24 h; 40 nM
Counter-ions that a name gives are not always drawn.
Items are presented alongside their recorded relative cell viability.
Give the figure only, with no unit attached.

Use the examples below as a reference point.
> print(dat)
                                   compound  system   val
1  COCCOC(=O)C1=C(C)NC(C)=C(C(=O)OC/C=C/c2ccccc2)C1c1cccc([N+](=O)[O-])c1 (stereo not drawn)    HL-1   101
2  CCC(=O)O[C@]1(C(=O)CCl)[C@@H](C)C[C@H]2[C@@H]3CCC4=CC(=O)C=C[C@]4(C)[C@@]3(F)[C@@H](O)C[C@@]21C [Clobetasol propionate]    HL-1  98.2
3  CS(=O)(=O)c1ccc(C2=C(c3ccccc3)C(=O)OC2)cc1    HL-1   104
4  CCCCOc1ccc(OCCCN2CCOCC2)cc1 [Pramoxine HCl]    HL-1   106
5  CCCCNC(=O)NS(=O)(=O)c1ccc(C)cc1 [Tolbutamide]    HL-1    99
6  Nc1nc(CC(=O)Nc2ccc(CCNC[C@H](O)c3ccccc3)cc2)cs1    HL-1   112

As a next step, examine the compound that follows.
Tell me its relative cell viability given C=C[C@H]1CN2CC[C@H]1C[C@H]2[C@H](O)c1ccnc2ccc(OC)cc12 [Quinine hydrochloride dihydrate] as the entry. 103

---

Reported relative cell viability values for a set of molecules
- Tested on: HL-1
- Experimental Details: relative cell viability (CellTiter-Glo) vs DMSO control (% of DMSO control); higher = more viable cells
- Run Conditions: oxygen condition: hypoxia 48 h (1% O2) + reoxygenation 24 h; 1000 nM
Just the number, please.

Some molecules with known relative cell viability results, for comparison:
Molecule	relative cell viability
O=C(O)[C@H](CC(=O)N1C[C@H]2CCCC[C@H]2C1)Cc1ccccc1 [Mitiglinide calcium]	99.7
CCN(CC)CCOC(=O)c1ccc(N)cc1 [Procaine]	109
CC(C)NCC(O)COc1ccc(COCCOC(C)C)cc1 (stereo not drawn) [Bisoprolol]	87.2
CN1C2=CC(=O)/C(=N\NC(N)=O)C=C2CC1S(=O)(=O)O (stereo not drawn) [Carbazochrome sodium sulfonate]	101
Cc1c(OCC(F)(F)F)ccnc1C[S@@+]([O-])c1nc2ccccc2[nH]1 [Dexlansoprazole]	107

Hello, please tell me recorded relative cell viability for this one: CC1CCc2c(N3CCC(O)CC3)c(F)cc3c(=O)c(C(=O)O)cn1c23 (stereo not drawn) [Nadifloxacin] 102

Using the record for Nc1nc(F)nc2c1ncn2[C@@H]1O[C@H](COP(=O)(O)O)[C@@H](O)[C@@H]1O [Fludarabine Phosphate] , state its measured relative cell viability. 119

Using the record for COc1ccc(CC2c3cc(OC)c(OC)cc3CC[N+]2(C)CCC(=O)OCCCCCOC(=O)CC[N+]2(C)CCc3cc(OC)c(OC)cc3C2Cc2ccc(OC)c(OC)c2)cc1OC (stereo not drawn) [Atracurium besylate] , state its measured relative cell viability. 91.2

---

- System: HL-1
- Experimental Details: relative cell viability (CellTiter-Glo) vs DMSO control (% of DMSO control); higher = more viable cells
- Run Conditions: oxygen condition: normoxia 72 h; 5000 nM
Quantity: relative cell viability
Respond using a number only.

Use these answered entries as a reference point.
Compound	System	Val
COc1ccc(CC2c3cc(OC)c(OC)cc3CC[N+]2(C)CCC(=O)OCCCCCOC(=O)CC[N+]2(C)CCc3cc(OC)c(OC)cc3C2Cc2ccc(OC)c(OC)c2)cc1OC (stereo unspecified) [Atracurium besylate]	HL-1	18.9
N[C@@H](Cc1cc(I)c(Oc2ccc(O)c(I)c2)c(I)c1)C(=O)O [Liothyronine Sodium]	HL-1	107

Report relative cell viability on HL-1 for this entry: COc1cccc2c1C(=O)c1c(O)c3c(c(O)c1C2=O)C[C@@](O)(C(=O)CO)C[C@@H]3O[C@H]1C[C@H](N)[C@H](O)[C@H](C)O1 [Doxorubicin] 13.7

Under HL-1: report relative cell viability of CC(=O)Oc1ccccc1C(=O)O [Aspirin] . 122

State relative cell viability (HL-1) of CC(=O)OCC(=O)[C@@]1(O)CC[C@H]2[C@@H]3CCC4=CC(=O)CC[C@]4(C)[C@H]3C(=O)C[C@@]21C [Cortisone acetate] . 103

Please look at COc1cc([C@@H]2c3cc4c(cc3[C@@H](O[C@@H]3O[C@@H]5CO[C@@H](c6cccs6)O[C@H]5[C@H](O)[C@H]3O)[C@H]3COC(=O)[C@H]23)OCO4)cc(OC)c1O [Teniposide] and tell me its recorded relative cell viability on HL-1. 118

---

Listing: relative cell viability of selected molecules
- Tested on: HL-1
- Experimental Details: relative cell viability (CellTiter-Glo) vs DMSO control (% of DMSO control); higher = more viable cells
- Run Conditions: oxygen condition: hypoxia 48 h (1% O2) + reoxygenation 24 h; 200 nM
Counter-ions that a name gives are not always drawn.
I'd appreciate a reply containing only the number, no unit.

Molecule	Val
CNC[C@H](O)c1cccc(O)c1 [Phenylephrine HCl]	108

Fill in relative cell viability for record `C[C@]12CC[C@@H]3c4ccc(O)cc4CC[C@H]3[C@@H]1CC[C@@H]2O` 98.2

Note relative cell viability for the molecule shown: COc1ccc(C[C@@H]2c3cc(OC)c(OC)cc3CC[N@+]2(C)CCC(=O)OCCCCCOC(=O)CC[N@@+]2(C)CCc3cc(OC)c(OC)cc3[C@H]2Cc2ccc(OC)c(OC)c2)cc1OC [Cisatracurium besylate] 100

Consider the molecule CC(=O)O[C@H]1CC[C@@]2(C)C(=CC[C@@H]3[C@@H]2CC[C@]2(C)C(c4cccnc4)=CC[C@@H]32)C1 [Abiraterone Acetate] and give its recorded relative cell viability. 103

Find the measured relative cell viability of `C[C@H](CCC(=O)O)[C@H]1CC[C@H]2[C@@H]3CC[C@@H]4C[C@H](O)CC[C@]4(C)[C@H]3CC[C@]12C` and report it. 108

Recall and state the measured relative cell viability for `O=C(c1ccc(OCCN2CCCCC2)cc1)c1c(-c2ccc(O)cc2)sc2cc(O)ccc12` . 107

Respond only with relative cell viability recorded for Nc1[nH]cnc2ncnc1-2 [Adenine] 97.9

Specify relative cell viability for NS(=O)(=O)c1cc2c(cc1Cl)N=C(CSCc1ccccc1)NS2(=O)=O [Benzthiazide] and stop. 99.8

Report measured relative cell viability; entry is `CCc1c2c(nc3ccc(OC(=O)N4CCC(N5CCCCC5)CC4)cc13)-c1cc3c(c(=O)n1C2)COC(=O)[C@]3(O)CC` 90.1

Indicate its recorded relative cell viability; the molecule in question is `C=CC(=O)Nc1cc(Nc2nccc(-c3cn(C)c4ccccc34)n2)c(OC)cc1N(C)CCN(C)C` 94.4

Report relative cell viability, nothing else, for this molecule: `O=C(O)C1(C(=O)O)CCC1.[NH2-].[NH2-].[Pt+2]` 109

Read off the recorded relative cell viability for CCN(CC)CC#CCOC(=O)C(O)(c1ccccc1)C1CCCCC1 (configuration not stated) [Oxybutynin] 99.9

Identify relative cell viability associated with the molecule CCN(CCCc1ccccc1)CCCc1ccccc1 [Alverine Citrate] 110

Identify the reported relative cell viability for the following entry. CC(S)C(=O)NCC(=O)O (configuration not stated) 102

Supply recorded relative cell viability for `N[C@@H](Cc1ccc(O)c(O)c1)C(=O)O` here. 109

Tell me measured relative cell viability for O=C1[C@@H]2[C@H]3CC[C@H](C3)[C@@H]2C(=O)N1C[C@@H]1CCCC[C@H]1CN1CCN(c2nsc3ccccc23)CC1 [Lurasidone HCl] please. 101

Please list relative cell viability recorded for the molecule CC(=O)OCC(=O)[C@H]1CC[C@H]2[C@@H]3CCC4=CC(=O)CC[C@]4(C)[C@H]3CC[C@]12C [Deoxycorticosterone acetate] 99.4
